These entries and their values trace back to IntAct's records for PubMed 17409324.

B1: Vang-like protein 1 (Homo sapiens), Q8TAA9 (parent)
chain: MDTESTYSGYSYYSSHSKKSHRQGERTRERHKSPRNKDGRGSEKSVTIQPPTGEPLLGNDSTRTEEVQDDNWGETTTAITGTSEHSISQEDIARISKDMEDSVGLDCKRYLGLTVASFLGLLVFLTPIAFILLPPILWRDELEPCGTICEGLFISMAFKLLILLIGTWALFFRKRRADMPRVFVFRALLLVLIFLFVVSYWLFYGVRILDSRDRNYQGIVQYAVSLVDALLFIHYLAIVLLELRQLQPMFTLQVVRSTDGESRFYSLGHLSIQRAALVVLENYYKDFTIYNPNLLTASKFRAAKHMAGLKVYNVDGPSNNATGQSRAMIAAAARRRDSSHNELYYEEAEHERRVKKRKARLVVAVEEAFIHIQRLQAEEQQKAPGEVMDPREAAQAIFPSMARALQKYLRITRQQNYHSMESILQHLAFCITNGMTPKAFLERYLSAGPTLQYDKDRWLSTQWRLVSDEAVTNGLRDGIVFVLKCLDFSLVVNVKKIPFIILSEEFIDPKSHKFVLRLQSETSV
partner: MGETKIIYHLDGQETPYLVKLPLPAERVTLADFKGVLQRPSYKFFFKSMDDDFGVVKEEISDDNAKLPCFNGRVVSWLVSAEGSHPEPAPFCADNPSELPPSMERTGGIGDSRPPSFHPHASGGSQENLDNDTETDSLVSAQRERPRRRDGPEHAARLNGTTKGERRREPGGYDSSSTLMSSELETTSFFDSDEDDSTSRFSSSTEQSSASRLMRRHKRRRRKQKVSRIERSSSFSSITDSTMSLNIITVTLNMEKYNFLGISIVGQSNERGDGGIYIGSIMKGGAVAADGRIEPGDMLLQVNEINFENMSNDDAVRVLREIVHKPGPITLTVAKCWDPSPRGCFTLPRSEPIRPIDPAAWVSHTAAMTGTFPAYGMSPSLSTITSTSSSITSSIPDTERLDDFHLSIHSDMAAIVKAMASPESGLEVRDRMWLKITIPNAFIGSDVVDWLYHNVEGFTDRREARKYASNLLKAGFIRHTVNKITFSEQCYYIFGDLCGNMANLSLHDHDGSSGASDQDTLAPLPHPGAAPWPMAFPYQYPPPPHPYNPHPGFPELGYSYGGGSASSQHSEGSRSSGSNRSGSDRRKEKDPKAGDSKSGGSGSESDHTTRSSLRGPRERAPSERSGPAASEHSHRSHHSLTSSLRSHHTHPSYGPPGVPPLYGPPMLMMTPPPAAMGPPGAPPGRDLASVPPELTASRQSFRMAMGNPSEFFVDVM

Variants of: B1
conditions: with dvl3_mouse Dvl3, Q61062

| variant_identifier | effect of a mutation on the interaction |
| --- | --- |
| R274Q | with no effect |
| S467N | with no effect |
| M328T | with no effect |
